# method-notes: Specific index, ratio of IC50 for human HL60 cells to MIC for LFA1/ICAM1
# Format: functional, HL-60
assay-endpoint: Ratio

INSERT INTO assay_data (smiles_record, result) VALUES
  ('CC[C@@H](C)C(=O)O[C@H]1C(=O)O[C@@H]2C[C@H]3C(C)=CC(=O)[C@@H](O)[C@]3(C)[C@H]3[C@@H](OC(C)=O)[C@H](OC(C)=O)[C@]4(C)OC[C@]32[C@@H]14', 1.9),
  ('CC[C@@H](C)C(=O)O[C@H]1C(=O)O[C@@H]2C[C@H]3C(C)=CC(=O)[C@@H](O)[C@]3(C)[C@H]3[C@@H](O)[C@H](O)[C@]4(C)OC[C@]32[C@@H]14', 2.5),
  ('C=C1[C@@H](C)[C@H]2[C@H](Cc3ccccc3)NC(=O)[C@]23OC(=O)/C=C/[C@H](O)CCC[C@@H](C)C/C=C/[C@H]3[C@@H]1O', 17.2),
  ('CC[C@@H](C)C(=O)O[C@H]1C(=O)O[C@@H]2C[C@H]3C(C)=C[C@H](O)[C@@H](O)[C@]3(C)[C@H]3[C@@H](O)[C@@H](O)[C@]4(C)OC[C@]32[C@@H]14', 2.7);
